# System: UniProt:P42336
# Sequence (P42336 whole entry, looked up): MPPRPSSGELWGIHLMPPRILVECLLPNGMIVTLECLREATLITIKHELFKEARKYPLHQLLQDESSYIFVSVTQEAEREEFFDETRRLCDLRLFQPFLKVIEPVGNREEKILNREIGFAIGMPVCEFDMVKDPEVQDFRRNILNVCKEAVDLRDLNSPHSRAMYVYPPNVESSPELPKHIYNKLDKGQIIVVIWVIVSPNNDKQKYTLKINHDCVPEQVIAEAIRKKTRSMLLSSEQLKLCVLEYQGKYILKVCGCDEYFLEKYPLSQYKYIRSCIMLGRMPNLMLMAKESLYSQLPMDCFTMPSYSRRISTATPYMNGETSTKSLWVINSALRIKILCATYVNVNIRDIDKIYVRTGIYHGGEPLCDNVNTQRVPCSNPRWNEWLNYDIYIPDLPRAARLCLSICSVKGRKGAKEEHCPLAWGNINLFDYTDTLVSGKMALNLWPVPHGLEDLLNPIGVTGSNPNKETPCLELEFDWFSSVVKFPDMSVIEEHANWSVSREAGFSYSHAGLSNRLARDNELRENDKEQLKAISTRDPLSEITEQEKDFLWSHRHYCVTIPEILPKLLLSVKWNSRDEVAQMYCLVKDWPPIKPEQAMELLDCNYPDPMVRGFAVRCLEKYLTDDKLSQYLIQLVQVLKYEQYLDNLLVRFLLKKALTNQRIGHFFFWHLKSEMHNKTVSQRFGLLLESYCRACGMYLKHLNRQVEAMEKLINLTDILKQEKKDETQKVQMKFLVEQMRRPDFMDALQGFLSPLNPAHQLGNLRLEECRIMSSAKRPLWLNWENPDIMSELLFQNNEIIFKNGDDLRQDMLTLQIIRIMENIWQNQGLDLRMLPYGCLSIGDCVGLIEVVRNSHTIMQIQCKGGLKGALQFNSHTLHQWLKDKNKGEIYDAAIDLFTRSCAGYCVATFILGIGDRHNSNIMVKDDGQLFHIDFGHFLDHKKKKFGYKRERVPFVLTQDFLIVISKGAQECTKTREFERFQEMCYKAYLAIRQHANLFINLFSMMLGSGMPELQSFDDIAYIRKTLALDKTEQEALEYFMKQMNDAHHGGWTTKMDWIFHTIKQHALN
# Method notes: Assessment of PIK3CA Kinase Activity
pIC50: −log10 of the molar value.
Measurement type: pIC50

Looking up C[C@@H]1COCCN1c1cc(C2CCOCC2)nc(-c2ccc(NC(=O)Nc3ccc(C(=O)N4CCN(C)CC4)cc3)cc2)n1 , I see its pIC50 listed as 7.09

1. C[C@@H]1COCCN1c1cc(C2CCOCC2)nc(-c2ccc(NC(=O)Nc3cccnc3)cc2)n1
2. CNC(=O)Nc1ccc(-c2ccnc(N3CCOCC3)n2)cc1
3. O=C(NCCO)Nc1ccc(-c2nc(N3CCOCC3)c3sccc3n2)cc1
Put the entries in order of pIC50, starting with the largest number. Sort the labels as requested; that list is your answer. 3, 2, 1
(3: 6.85, 2: 6.40, 1: 6.16)

Taken from the Kinase Knowledgebase extract (Sharma et al. 2016).
